Below: a set of entries, each annotated with reported selectivity ratio.
# test_summary: Selectivity index, ratio of CC50 for cytotoxicity against monkey LLC-MK2 cells to IC50 for antileishmanial activity against Leishmania amazonensis IFLA/BR/1967/PH8 amastigotes infected in mouse peritoneal macrophage
# Type: toxicity, cell-based
# experimental_setup: read-out: Ratio CC50/IC50

These solved cases illustrate the format of a correct answer.
O=[N+]([O-])c1nccn1Cc1cc(-c2ccc(F)cc2)no1 | > 2.1
Nc1ccc(-c2cc(Cn3ccnc3[N+](=O)[O-])on2)cc1 | > 2.3
O=[N+]([O-])c1nccn1Cc1cc(-c2ccc(N3CCCC3)cc2)no1 | > 5
COc1ccc(-c2cc(Cn3ccnc3[N+](=O)[O-])on2)cc1Cl | > 1.6
N#Cc1ccc(-c2cc(Cn3ccnc3[N+](=O)[O-])on2)cc1 | > 1.4
O=[N+]([O-])c1nccn1Cc1cc(-c2ccc(Cl)c(Cl)c2)no1 | > 2.6
O=[N+]([O-])c1nccn1Cc1cc(-c2ccc(OC(F)(F)F)cc2)no1 | > 1.4
C[C@@H]1[C@H](O)[C@@H](C)/C=C/C=C/C=C/C=C/C=C/C=C/C=C/[C@H](O[C@@H]2O[C@H](C)[C@@H](O)[C@H](N)[C@@H]2O)C[C@@H]2O[C@](O)(C[C@@H](O)C[C@@H](O)[C@H](O)CC[C@@H](O)C[C@@H](O)CC(=O)O[C@H]1C)C[C@H](O)[C@H]2C(=O)O | 9.87
O=[N+]([O-])c1nccn1Cc1cc(-c2ccc(O)cc2)no1 | > 2.7
O=[N+]([O-])c1nccn1Cc1cc(-c2ccc(Cl)cc2Cl)no1 | 1.3

Qu. What value of measured selectivity ratio is listed for O=[N+]([O-])c1nccn1Cc1cc(-c2ccc3c(c2)OCO3)no1 ?
Ans. > 6

* * *

Below: a set of entries, each annotated with reported selectivity ratio.
# test_summary: Selectivity index, ratio of CC50 for monkey LLC-MK2 cells to IC50 for Trypanosoma cruzi Tulahuen lacZ expressing beta-galactosidase amastigotes infected monkey LLC-MK2 cells
# Format: toxicity
# experimental_setup: read-out: Ratio CC50/IC50

These solved cases illustrate the format of a correct answer.
O=[N+]([O-])c1nccn1Cc1cc(-c2ccc(N3CCNCC3)cc2)no1 | > 10.5
O=[N+]([O-])c1nccn1Cc1cc(-c2cccc(Cl)c2)no1 | > 5.3
O=[N+]([O-])c1ccc(-c2cc(Cn3ccnc3[N+](=O)[O-])on2)o1 | > 51
CSc1ccc(-c2cc(Cn3ccnc3[N+](=O)[O-])on2)cc1 | > 1.6

Qu. What value of measured selectivity ratio is listed for O=[N+]([O-])c1nccn1Cc1cc(-c2ccc(N3CCCCC3)cc2)no1 ?
Ans. > 6.7

Qu. What value of measured selectivity ratio is listed for O=[N+]([O-])c1nccn1Cc1cc(-c2ccc(F)c(F)c2)no1 ?
Ans. > 7.6

Qu. What value of measured selectivity ratio is listed for COc1ccc(-c2cc(Cn3ccnc3[N+](=O)[O-])on2)cc1Cl ?
Ans. > 49

Qu. What value of measured selectivity ratio is listed for COc1cccc(-c2cc(Cn3ccnc3[N+](=O)[O-])on2)c1 ?
Ans. > 4.4

Qu. What value of measured selectivity ratio is listed for O=[N+]([O-])c1nccn1Cc1cc(-c2ccccn2)no1 ?
Ans. > 6.7

Qu. What value of measured selectivity ratio is listed for Cc1ccc(-c2cc(Cn3ccnc3[N+](=O)[O-])on2)cc1 ?
Ans. > 5.4

Qu. What value of measured selectivity ratio is listed for COc1cc(OC)c(Cl)c(-c2cc(Cn3ccnc3[N+](=O)[O-])on2)c1 ?
Ans. > 4.2

Qu. What value of measured selectivity ratio is listed for COc1ccc(-c2cc(Cn3ccnc3[N+](=O)[O-])on2)cc1 ?
Ans. > 25.6

Qu. What value of measured selectivity ratio is listed for O=[N+]([O-])c1nccn1Cc1cc(-c2ccc(F)cc2)no1 ?
Ans. > 15.3

Qu. What value of measured selectivity ratio is listed for O=[N+]([O-])c1nccn1Cc1cc(-c2ccc(Cl)cc2Cl)no1 ?
Ans. > 11.4

Qu. What value of measured selectivity ratio is listed for N#Cc1cccc(-c2cc(Cn3ccnc3[N+](=O)[O-])on2)c1 ?
Ans. > 1.2

Qu. What value of measured selectivity ratio is listed for Nc1ccc(-c2cc(Cn3ccnc3[N+](=O)[O-])on2)cc1 ?
Ans. > 8.1

Qu. What value of measured selectivity ratio is listed for COc1cc(-c2cc(Cn3ccnc3[N+](=O)[O-])on2)cc(OC)c1OC ?
Ans. > 25.9

Qu. What value of measured selectivity ratio is listed for N#Cc1ccc(-c2cc(Cn3ccnc3[N+](=O)[O-])on2)cc1 ?
Ans. > 0.6

Qu. What value of measured selectivity ratio is listed for O=[N+]([O-])c1nccn1Cc1cc(-c2ccc(N3CCN(CCO)CC3)cc2)no1 ?
Ans. > 6.7

Qu. What value of measured selectivity ratio is listed for O=[N+]([O-])c1ccc(-c2cc(Cn3ccnc3[N+](=O)[O-])on2)cc1 ?
Ans. 2.5

Qu. What value of measured selectivity ratio is listed for O=[N+]([O-])c1nccn1Cc1cc(-c2ccccc2)no1 ?
Ans. > 12.3

Qu. What value of measured selectivity ratio is listed for O=[N+]([O-])c1nccn1Cc1cc(-c2ccncc2)no1 ?
Ans. > 16.3
